assay: Quantitative highthroughput screen to assess conditional lethalithy of NOMO1 cells grown in RPMI1640 with dialyzed fetal bovine serum (RPMI+ds) (AID 1963877); also: nearly all actives have a fitted effect of over 30% in size;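 as to viability: 100% = DMSO control wells and 0% = empty wells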
recordedConditions: NOMO1 in RPMI+dialyzed FBS viability, ATP luminescence, 48 h; series mostly up to 45.8 µM
Procedure: Assay Provider: Jason Cantor Ph.D. Department of Biochemistry University of Wisconsin-Madison, Madison, WI, USA Chemical screening studies have identified drug sensitivities across hundreds of cancer cell lines but most putative therapeutics fail to translate. […] Sets of conditional anticancer compounds spanned phases of clinical development and included non-oncology drugs were assessed. […] 6; Detection; Luminescence, Viewlux PerkinElmer. […]
Inconclusive results are not listed. Calls of active or inactive are those of the source. Calls follow the shape of the dose curve; as a rule, active = well fitted cell-killing curve with a large enough effect; inconclusive = small, poorly fitted or top-dose-only effect; inactive = flat fitted curve, though single readings scatter.
Pick one: active, inactive

Write down the call the test reported for this molecule. Item: CCOP(=O)(OCC)C(C)NC(=O)N(CCCl)N=O (stereo not drawn)
inactive

Write down the call the test reported for this molecule. Item: CC=C(C)C(=O)O[C@H]1C(C)=C2[C@@H]3OC(=O)[C@@](C)(O)[C@@]3(O)[C@@H](OC(=O)CCC)C[C@](C)(OC(C)=O)[C@@H]2[C@@H]1OC(=O)CCCCCCC
active

Write down the call the test reported for this molecule. Item: CC(C)C[C@H](CN)CC(=O)O
inactive

New cases:
Write down the call the test reported for this molecule. Item: C[C@@H]1O[C@@H](O[C@@H]2C=C3CC[C@@H]4[C@@H](CC[C@]5(C)[C@H](c6ccc(=O)oc6)CC[C@@]45O)[C@@]3(C)CC2)[C@H](O)[C@H](O)[C@H]1O
active

Write down the call the test reported for this molecule. Item: C[C@](O)(CS(=O)(=O)c1ccc(F)cc1)C(=O)Nc1ccc(C#N)c(C(F)(F)F)c1
inactive

Write down the call the test reported for this molecule. Item: CN(C)[C@@H]1C(=O)C(C(N)=O)=C(O)[C@@]2(O)C(=O)C3=C(O)c4c(O)cccc4[C@@](C)(O)[C@H]3C[C@@H]12
inactive

Write down the call the test reported for this molecule. Item: CC(C)(O)C=CC(=O)[C@](C)(O)[C@H]1[C@H](O)C[C@]2(C)[C@@H]3CC=C4[C@@H](C=C(O)C(=O)C4(C)C)[C@]3(C)C(=O)C[C@@]12C
active

Write down the call the test reported for this molecule. Item: Cn1c(CCCC(=O)O)nc2cc(N(CCCl)CCCl)ccc21
inactive

----------
Item-by-item account of activity (max response)
assay: Cellular viability qHTS for adrenocortical cancer (ACC) cell line SW-13 (AID 1963989);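 also: cells grown in serum-free medium with ITS supplement; % is scaled to controls: 0 for no effect and ±100 for the full control effect; nearly all actives have a fitted effect of over 65% in size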
recordedConditions: SW-13 ACC cells viability, CellTiter-Glo, 48 h; hits give low values
Results filed as inconclusive are left out.
Write down the numeric answer in % and omit the unit.

Below are worked cases with known answers.
activity (max response) lookup needed for CCOP(=O)(OCC)C(C)NC(=O)N(CCCl)N=O (stereo unspecified) , thanks.
3.2

activity (max response) lookup needed for CCS(=O)(=O)C(C)(C)S(=O)(=O)CC , thanks.
-10.9

activity (max response) lookup needed for COc1cc(C[C@@H](C)N)c(OC)cc1C , thanks.
-18.7

New cases:
activity (max response) lookup needed for C#C[C@]1(O)CC[C@H]2[C@@H]3CCC4=CC(=O)CC[C@]4(C)[C@H]3CC[C@@]21C , thanks.
3.93

activity (max response) lookup needed for O=C(O)CCCCCCNC1c2ccccc2CCc2ccccc21 , thanks.
1.72

activity (max response) lookup needed for Cc1ccc2c(c1)C1CN(C)CCC1N2 (stereo unspecified) , thanks.
-4.86
